# measurement-target: T1, hu-CD74 antigen (R&D SYSTEMS catalog #3590-CD-050) (human, UniProt P04233-2 73-232, limits assumed)
# T1 construct: Bought antigen; also called rhCD74; human CD74
# T1 sequence (looked up): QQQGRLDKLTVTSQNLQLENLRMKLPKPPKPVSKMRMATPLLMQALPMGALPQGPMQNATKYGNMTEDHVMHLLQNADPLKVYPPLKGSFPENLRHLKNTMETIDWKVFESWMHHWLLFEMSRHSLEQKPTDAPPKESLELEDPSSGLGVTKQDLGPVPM
# procedure-details: SPR (Biacore T200), captured on anti-human Fc, rhCD74 analyte
Record form. Attribute: pKd. Fill in for each entry.
One number for each entry, as −log10 of the molar value.

Examples from the recorded data:
binder="1337-A08 light chain paired with VH 1251-A06 (SEQ ID NO: 236) (Fab, V domains shown, 'in Fab format') VH: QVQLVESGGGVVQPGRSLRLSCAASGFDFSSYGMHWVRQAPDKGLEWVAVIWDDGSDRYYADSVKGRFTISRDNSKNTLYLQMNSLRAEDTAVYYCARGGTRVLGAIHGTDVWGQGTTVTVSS VL: DIQMTQSPSSLSASVGDRVTITCRASQDIGSWVAWYQQKPEKAPKSLIYASDSLQSGVPSRFSGSGSGTDFTLTISSLQPEDFATYYCQQYNSYPLTFGGGTKVEIK" readout_kind=pKd numeric_readout=9.75
binder="1337-A10 light chain paired with VH 1251-A06 (SEQ ID NO: 236) (Fab, V domains shown, 'in Fab format') VH: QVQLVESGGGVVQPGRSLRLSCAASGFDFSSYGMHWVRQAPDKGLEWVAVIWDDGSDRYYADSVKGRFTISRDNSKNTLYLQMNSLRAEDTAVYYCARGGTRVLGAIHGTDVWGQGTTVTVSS VL: DIQMTQSPSSLSASVGDRVTITCRASQGISSWVAWYQQKPEKAPKSLIYGSSRLQSGVPSRFSGSGSGTDFTLTISSLQPEDFATYYCQQYNTYPLTFGGGTKVEIK" readout_kind=pKd numeric_readout=9.76
binder="1337-A06 light chain paired with VH 1251-A06 (SEQ ID NO: 236) (Fab, V domains shown, 'in Fab format') VH: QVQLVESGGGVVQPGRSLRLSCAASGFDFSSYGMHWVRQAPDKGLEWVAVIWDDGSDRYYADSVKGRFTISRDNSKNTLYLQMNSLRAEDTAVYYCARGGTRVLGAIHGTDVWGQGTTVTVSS VL: DIQMTQSPSSLSASVGDRVTITCRASQDIGSWVAWYQQKPEKAPKSLIYGADRLQSGVPSRFSGSGSGTDFTLTISSLQPEDFATYYCQQYNSYPLTFGGGTKVEIK" readout_kind=pKd numeric_readout=9.74
binder="1337-A04 light chain paired with VH 1251-A06 (SEQ ID NO: 236) (Fab, V domains shown, 'in Fab format') VH: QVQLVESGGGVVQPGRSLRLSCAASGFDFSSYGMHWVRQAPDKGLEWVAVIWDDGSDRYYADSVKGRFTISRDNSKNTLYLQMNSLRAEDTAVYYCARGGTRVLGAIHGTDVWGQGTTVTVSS VL: DIQMTQSPSSLSASVGDRVTITCRASQDIGRWVAWYQQKPEKAPKSLIYGASSLQSGVPSRFSGSGSGTDFTLTISSLQPEDFATYYCQQYNTYPLTFGGGTKVEIK" readout_kind=pKd numeric_readout=9.80
binder="1337-A05 light chain paired with VH 1251-A06 (SEQ ID NO: 236) (Fab, V domains shown, 'in Fab format') VH: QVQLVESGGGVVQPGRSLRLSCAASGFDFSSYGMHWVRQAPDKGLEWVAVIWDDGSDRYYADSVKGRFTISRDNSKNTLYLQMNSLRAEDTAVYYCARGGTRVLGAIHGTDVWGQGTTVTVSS VL: DIQMTQSPSSLSASVGDRVTITCRASQGIGRWVAWYQQKPEKAPKSLIYGADRLQSGVPSRFSGSGSGTDFTLTISSLQPEDFATYYCQQYNSYPLTFGGGTKVEIK" readout_kind=pKd numeric_readout=9.75

State the recorded pKd for every item in the following list.
1. 1337-A09 light chain paired with VH 1251-A06 (SEQ ID NO: 236) (Fab, V domains shown, 'in Fab format') VH: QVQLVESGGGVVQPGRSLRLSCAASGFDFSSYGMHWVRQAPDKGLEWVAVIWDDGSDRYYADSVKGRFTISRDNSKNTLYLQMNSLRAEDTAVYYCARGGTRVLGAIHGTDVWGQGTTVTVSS VL: DIQMTQSPSSLSASVGDRVTITCRASQGIGSWLAWYQQKPEKAPKSLIYAADRLQSGVPSRFSGSGSGTDFTLTISSLQPEDFATYYCQQYHTYPLTFGGGTKVEIK
2. 1337-A07 light chain paired with VH 1251-A06 (SEQ ID NO: 236) (Fab, V domains shown, 'in Fab format') VH: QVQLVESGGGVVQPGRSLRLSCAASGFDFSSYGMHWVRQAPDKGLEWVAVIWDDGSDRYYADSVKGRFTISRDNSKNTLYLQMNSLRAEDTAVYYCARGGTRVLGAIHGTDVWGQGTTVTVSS VL: DIQMTQSPSSLSASVGDRVTITCRASQGISSWVAWYQQKPEKAPKSLIYGASRLQSGVPSRFSGSGSGTDFTLTISSLQPEDFATYYCQQYHTYPLTFGGGTKVEIK

## Output
1. 9.87
2. 9.74

// data source = patent US20170253656A1
